Target: human MC4R receptor (human, UniProt P32245 1-332)
Sequence (P32245 whole entry): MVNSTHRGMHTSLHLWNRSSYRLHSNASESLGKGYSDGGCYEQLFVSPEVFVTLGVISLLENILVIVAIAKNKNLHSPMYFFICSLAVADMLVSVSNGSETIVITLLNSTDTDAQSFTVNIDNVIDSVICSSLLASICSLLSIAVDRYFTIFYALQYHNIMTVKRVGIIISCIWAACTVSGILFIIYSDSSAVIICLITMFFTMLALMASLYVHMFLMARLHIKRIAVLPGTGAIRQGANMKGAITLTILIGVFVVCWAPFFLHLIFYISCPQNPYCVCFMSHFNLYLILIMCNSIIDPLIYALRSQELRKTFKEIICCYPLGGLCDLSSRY
Protocol details: cell-based or functional assay
Positions of bridges follow the written chain, without caps; N, C: chain ends. Non-standard residues stand in square brackets, D forms with d. NMeW = CN[C@@H](Cc1c[nH]c2ccccc12)C(=O)O; d(αMeF) = C[C@@](N)(Cc1ccccc1)C(=O)O; NMeH = CN[C@@H](Cc1c[nH]cn1)C(=O)O; Cit = NC(=O)NCCC[C@H](N)C(=O)O; NMeA = CN[C@@H](C)C(=O)O; Nle = CCCC[C@H](N)C(=O)O
Measurement name: % max activation (%)

{"Binder": "Ac-C[dA][Cit][dF]RWC-NH2 (disulfide 1-7; SMILES CC(=O)N[C@H]1CSSC[C@@H](C(N)=O)NC(=O)[C@H](Cc2c[nH]c3ccccc23)NC(=O)[C@H](CCCNC(=N)N)NC(=O)[C@@H](Cc2ccccc2)NC(=O)[C@H](CCCNC(N)=O)NC(=O)[C@@H](C)NC1=O) [CTX-1628]", "Endpoint result": 99}
{"Binder": "Ac-CGH[dF]RWC-NH2 (disulfide 1-7; SMILES CC(=O)N[C@H]1CSSC[C@@H](C(N)=O)NC(=O)[C@H](Cc2c[nH]c3ccccc23)NC(=O)[C@H](CCCNC(=N)N)NC(=O)[C@@H](Cc2ccccc2)NC(=O)[C@H](Cc2c[nH]cn2)NC(=O)CNC1=O) [CTX-1206]", "Endpoint result": 101}
{"Binder": "Ac-R[Nle]CH[dF]RWC-NH2 (disulfide 3-8; SMILES CCCC[C@H](NC(=O)[C@H](CCCNC(=N)N)NC(C)=O)C(=O)N[C@H]1CSSC[C@@H](C(N)=O)NC(=O)[C@H](Cc2c[nH]c3ccccc23)NC(=O)[C@H](CCCNC(=N)N)NC(=O)[C@@H](Cc2ccccc2)NC(=O)[C@H](Cc2c[nH]cn2)NC1=O) [CTX-1227]", "Endpoint result": 103}
{"Binder": "Ac-RC[dA]R[d(αMeF)]RWC-NH2 (disulfide 2-8; SMILES CC(=O)N[C@@H](CCCNC(=N)N)C(=O)N[C@H]1CSSC[C@@H](C(N)=O)NC(=O)[C@H](Cc2c[nH]c3ccccc23)NC(=O)[C@H](CCCNC(=N)N)NC(=O)[C@@](C)(Cc2ccccc2)NC(=O)[C@H](CCCNC(=N)N)NC(=O)[C@@H](C)NC1=O) [CTX-1278]", "Endpoint result": 105}
{"Binder": "{CH2CO}-[dA][NMeH][dF]R[NMeW]C-NH2 (thioether N-6; SMILES C[C@H]1NC(=O)CSC[C@@H](C(N)=O)NC(=O)[C@H](Cc2c[nH]c3ccccc23)N(C)C(=O)[C@H](CCCNC(=N)N)NC(=O)[C@@H](Cc2ccccc2)NC(=O)[C@H](Cc2c[nH]cn2)N(C)C1=O) [CTX-1203]", "Endpoint result": 109}
{"Binder": "Ac-RC[NMeA]R[dF]R[dW]C-NH2 (disulfide 2-8; SMILES CC(=O)N[C@@H](CCCNC(=N)N)C(=O)N[C@H]1CSSC[C@@H](C(N)=O)NC(=O)[C@@H](Cc2c[nH]c3ccccc23)NC(=O)[C@H](CCCNC(=N)N)NC(=O)[C@@H](Cc2ccccc2)NC(=O)[C@H](CCCNC(=N)N)NC(=O)[C@H](C)N(C)C1=O) [CTX-1269]", "Endpoint result": 92}
